target desc: HA of influenza B virus B/Hong Kong/330/2001 (victoria) (influenza B virus B/Hong Kong/330/2001)
protocol: cell-based or functional assay
The entries below are paired with their reported Neutralization (Ave IC50 ug/ml).
experimental endpoint: Neutralization (Ave IC50 ug/ml) (µg/mL)

{"binder": "FBD-56 (antibody, V domains shown) VH: EVQLVESGGHLVQPGRSLRLSCAASGFTFEDYAMNWVRQAPGKGLEWVSVISWDSGRIGYADSVKGRFTISRDNAKNSSYLQMNSLRPEDTALYYCVRDMLAYYSDNSGKKYNVYGMDVWGQGTTVTVSS VL: EIVLTQSPATLSLSPGERATLSCRASQSVSTFLAWYQQKPGQAPRLLMYDASNRATGIPARFSGSGSGTDFTLTISSLEPEDFAIYYCQQRSHWPPIFGQGTRLEIK", "experimental endpoint": "Neutralization (Ave IC50 ug/ml)", "recorded value": 0.038}
{"binder": "FBC-39 FTL (antibody, V domains shown) VH: EVQLVESGGGLVKPGGSLRLSCAASGFTFLNAWMSWVRQAPGKGLEWVGRIKSNTDGGTTDYAAPVKGRFTISRDDSKNTLYLQMSSLKTEDTAVYYCTTDGPYSDDFRSGYAARYRYFGMDVWGQGTTVTVSS VL: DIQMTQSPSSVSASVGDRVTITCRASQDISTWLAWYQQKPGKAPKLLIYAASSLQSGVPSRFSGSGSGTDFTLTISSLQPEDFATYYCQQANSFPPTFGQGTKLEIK", "experimental endpoint": "Neutralization (Ave IC50 ug/ml)", "recorded value": 0.121}
{"binder": "FBC-39 LSL (antibody, V domains shown) VH: EVQLVESGGGLVKPGGSLRLSCAASGLSFLNAWMSWVRQAPGKGLEWVGRIKSNTDGGTTDYAAPVKGRFTISRDDSKNTLYLQMSSLKTEDTAVYYCTTDGPYSDDFRSGYAARYRYFGMDVWGQGTTVTVSS VL: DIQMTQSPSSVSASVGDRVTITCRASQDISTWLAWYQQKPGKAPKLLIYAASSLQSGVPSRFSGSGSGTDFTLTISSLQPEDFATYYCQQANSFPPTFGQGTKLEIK", "experimental endpoint": "Neutralization (Ave IC50 ug/ml)", "recorded value": 0.172}

Just for reference, patent US20250263470A1 is where these values come from.
